Numbers sourced from the supplement of paper PMC6757056.

B1: library; a variant is named by its letters at N, in order (parent)
chain: GCUGUCACCGGUGUAUUACCCUAGUGGUCGACCGGUCUGAUGAGUCUNNNNNNAGACGAAACAGC

Variants of: B1
assay.comment: FACS-Seq fitted mean relative fluorescence mCherry/BFP without ligand (log10 relative fluorescence); ligand: hypoxanthine (xanthine aptamer); higher = higher reporter protein expression
assay.conditions: HEK293T, ligand present: no
The entries below are paired with their reported FACS-Seq fitted mean (log10).
Would you mind answering with just the numeric figure?

Here are 3 variants together with their reported answers.
| sequence.change | FACS-Seq fitted mean (log10) |
| --- | --- |
| GCACUG | 0.25 |
| AAGGAG | 0.245 |
| GCGCGG | -0.388 |

Below: the item to evaluate.
Which FACS-Seq fitted mean (log10) value is on record for GCCUGA ?
0.389
